# System: Streptococcus Pneumonia ATCC 6303
# assay_info: In vitro antibacterial activity, agar dilution MIC
# Assay type: cell-based
# condition_details: code XX, BHI agar, 35-37° C., 20 to 24 hours, unit assumed
measurement_type: log10 Antibacterial Activity (MIC) (log10 of the value in µg/mL)
Please interpret these as log10 of Antibacterial Activity (MIC) where Antibacterial Activity (MIC) is in µg/mL.

Request: Requested read-out: log10 Antibacterial Activity (MIC). Entry: CCC1OC(=O)C(C)(CC=Cc2ccccc2)C(=O)C(C)C(OC2OC(C)CC(N(C)C)C2O)C(C)(OC)CC(C)C(=O)C(C)C2NC(=O)OC12C (centres unmarked) [Example 1]
Response: 0.90

Request: Requested read-out: log10 Antibacterial Activity (MIC). Entry: C#CCOC1(C)CC(C)C(=O)C(C)C2NC(=O)OC2(C)C(CC)OC(=O)C(C)(CC=Cc2ccccc2)C(=O)C(C)C1OC1OC(C)CC(N(C)C)C1O (centres unmarked) [Example 9]
Response: 0.00

Request: Requested read-out: log10 Antibacterial Activity (MIC). Entry: CCC1OC(=O)C(C)(O)C(=O)C(C)C(OC2OC(C)CC(N(C)C)C2O)C(C)(OCC=Cc2cnc3ccccc3c2)CC(C)C(=O)C(C)C2NC(=O)OC12C (centres unmarked) [Example 8]
Response: -1.52

Request: Requested read-out: log10 Antibacterial Activity (MIC). Entry: CCC1OC(=O)C(C)(O)C(=O)C(C)C(OC2OC(C)CC(N(C)C)C2O)C(C)(OC)CC(C)C(=O)C(C)C2N(CCCCc3ccccc3)C(=O)OC12C (centres unmarked) [Example 2]
Response: -0.30

Request: Requested read-out: log10 Antibacterial Activity (MIC). Entry: C=CCC1(C)C(=O)OC(CC)C2(C)OC(=O)NC2C(C)C(=O)C(C)CC(C)(OCC=Cc2cnc3ccccc3c2)C(OC2OC(C)CC(N(C)C)C2O)C(C)C1=O (centres unmarked) [Example 4]
Response: -0.60
